- System: CEM cells HIV-1 protection, formazan growth assay
- Test Protocol: NCI AIDS Antiviral Assay;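 active = compounds giving half or more protection of infected cells from virus-caused growth loss, again on retest; inactive = the rest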
Please answer using one outcome listed in 1 (active), -1 (inactive)

These recorded examples may help you get a feel for the data.
> print(dat)
                                   molecule  assigned.label
1        CCOC(=O)c1ccc(NC(=S)Nc2ncccc2C)cc1              -1
2  O=C(/C=C/c1ccc(O)c(O)c1)OCCc1cccc2ccccc12              -1
3  COc1ccc(S(=O)(=O)O)cc1-n1nc(C(=O)Nc2ccccc2)n[n+]1-c1cc(S(=O)(=O)[O-])ccc1OC              -1
4  O=C1OCCC1(Br)C(Br)c1ccccc1 (centres undefined)              -1
5  Cc1ccccc1C(C#N)C(=O)C(=O)Nc1cccc(Cl)c1 (centres undefined)              -1
6  O=C(/C(N=Nc1ccccc1)=C(\O)c1ccccc1)c1ccccc1              -1

[ask] # lookup: test call for Cc1c2cccc-2c(OCCO)cc2c1[nH]c1ccccc12
[reply] -1

[ask] Query: recorded result category for CN(CCCn1ccnc1[N+](=O)[O-])CCCn1ccnc1[N+](=O)[O-] in this test
[reply] -1

[ask] Call for entry O=C(/C=C(\O)c1ccc(Cl)cc1)C(=O)NN=C(c1ccccc1)c1ccccc1 :
[reply] -1
